Each entry below lists one item and its recorded normalized maximum binding nm shift value.
TEST SYSTEM: T1, Human VSIG4-L-Fc (human)
T1 construct: also called hVSIG4-L-Fc; hVSIG4-L
T1 sequence (chain, as listed by the source limits assumed): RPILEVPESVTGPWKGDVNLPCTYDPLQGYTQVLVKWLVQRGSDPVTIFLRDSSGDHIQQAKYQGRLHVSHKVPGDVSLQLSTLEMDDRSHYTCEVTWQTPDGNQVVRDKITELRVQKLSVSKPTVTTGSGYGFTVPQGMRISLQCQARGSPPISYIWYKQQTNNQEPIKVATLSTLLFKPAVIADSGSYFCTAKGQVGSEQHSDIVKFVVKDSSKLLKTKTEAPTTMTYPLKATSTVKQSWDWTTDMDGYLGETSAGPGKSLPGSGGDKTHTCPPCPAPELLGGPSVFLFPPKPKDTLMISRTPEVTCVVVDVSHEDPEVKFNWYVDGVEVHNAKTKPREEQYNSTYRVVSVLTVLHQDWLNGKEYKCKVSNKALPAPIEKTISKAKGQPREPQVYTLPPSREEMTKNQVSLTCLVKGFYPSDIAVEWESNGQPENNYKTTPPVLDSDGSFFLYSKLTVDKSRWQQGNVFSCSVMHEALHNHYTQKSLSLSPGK
PROCEDURE SUMMARY: BLI binning on hVSIG4-L-Fc, competitor 16E03 first;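 further: normalized to binding of second antibody without first competitor antibody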
State just the number; it will be interpreted in normalized.

Take a look at these entries with their results.
- 12A08 mouse/human chimeric IgG4 (S228P) kappa (antibody, V domains shown) VH: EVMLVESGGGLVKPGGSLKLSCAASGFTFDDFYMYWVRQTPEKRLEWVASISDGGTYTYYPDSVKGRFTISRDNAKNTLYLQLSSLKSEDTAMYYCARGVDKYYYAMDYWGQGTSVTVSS VL: QILLTQSPAIMSASPGEKVTITCSASSSVSYMHWFQQKPGTSPKLWIYSTSNLASGVPARFSGSGSGTSYSLTISRMEAEDAATYYCQQRSSYPLTFGAGTKLELKR: 0.1
- 15A06 mouse/human chimeric IgG4 (S228P) kappa (antibody, V domains shown) VH: QVQMKQSGPSLVRPSQTLSLTCSVTGDSITSGYWNWIRKFPGDKFEYLGYISYSGFTYYNPSLKSRVSITRDTSKNQYYLQLHSVTTEDTATYYCASSKYGSSLGFPYWGQGTLVTVSA VL: DVVMTQTPLSLPVSLGDQASISCRSSQSLVHSNGNTYLHWYLQKPGQSPKLLIYKVSNRFSGVPDRFSGSGSGTDFTLKISRVEAEDLGVYFCSQSTHVPFTFGSGTKLEIKR: 0.73

Specify measured normalized maximum binding nm shift for 16E10 mouse/human chimeric IgG4 (S228P) kappa (antibody, V domains shown) VH: QVQLQQSGAELVRPGTSVKISCKASGYTFTNYWLGWVKQRPGHGLEWIGDIYPGGGYTNYNEKFKGKATLTADTSSSTAYMQLSSLTSEDSAVYFCAKFYYYGSSYYFDSWGQGTTLTVSS VL: DIVLTQSPSSLSVSAGEKVTLSCKSSQSLLNSGNQENYLAWYQQKPGQPPKLLIYGASTRESGVPDRFTGSGSGTDFTLTISSVQAEDLAVYYCQNDHSYPLTFGAGTKLELKR .
0.1
